Recorded values, source patent US9353089B2.

Record form. Attribute: IC50. Fill in for each entry.
- experimental target: Plasmepsin-2 (PM-2; Plm II) (Plasmodium falciparum (isolate HB3), UniProt P46925)
- Sequence (P46925 125-453 limits assumed): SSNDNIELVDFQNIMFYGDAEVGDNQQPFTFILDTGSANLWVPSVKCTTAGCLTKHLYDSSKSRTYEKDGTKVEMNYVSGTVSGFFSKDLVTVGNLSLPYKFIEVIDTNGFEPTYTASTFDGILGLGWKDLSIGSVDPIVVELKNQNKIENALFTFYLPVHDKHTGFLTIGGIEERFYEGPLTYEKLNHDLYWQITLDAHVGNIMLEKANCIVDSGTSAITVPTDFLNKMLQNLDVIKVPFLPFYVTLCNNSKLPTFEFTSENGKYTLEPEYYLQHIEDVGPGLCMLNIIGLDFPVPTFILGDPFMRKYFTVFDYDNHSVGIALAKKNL
- test details: Plasmepsin-2 enzyme inhibition assay
- Type: biochemical
- conditions used: Table 12; read-out: PM-2 IC50
Only the number, expressed in nM, is required.

*Q* // query IC50 value for entry COc1cccc(-c2cccc(C3(C4CC4)NC(=N)N(C4CCCCC4)C3=O)c2)c1 (stereo not shown) [Example 328]
*A* 104

*Q* // query IC50 value for entry N=C1NC(c2ccccc2)(c2cccc(-c3cccnc3)c2)C(=O)N1C1CCCCC1 (stereo not shown) [Example 136]
*A* 13

*Q* // query IC50 value for entry COc1cccc(-c2cccc(C3(c4ccccc4)NC(=N)N(C)C3=O)c2)c1 (stereo not shown) [Example 327]
*A* 240

*Q* // query IC50 value for entry COc1cccc(-c2cccc(C3(C4CC4)NC(=N)N(C)C3=O)c2)c1 (stereo not shown) [Example 330]
*A* 751

====

- experimental target: recombinant human BACE1 (Homo sapiens, UniProt P56817)
- Sequence (P56817 46-501 limits assumed): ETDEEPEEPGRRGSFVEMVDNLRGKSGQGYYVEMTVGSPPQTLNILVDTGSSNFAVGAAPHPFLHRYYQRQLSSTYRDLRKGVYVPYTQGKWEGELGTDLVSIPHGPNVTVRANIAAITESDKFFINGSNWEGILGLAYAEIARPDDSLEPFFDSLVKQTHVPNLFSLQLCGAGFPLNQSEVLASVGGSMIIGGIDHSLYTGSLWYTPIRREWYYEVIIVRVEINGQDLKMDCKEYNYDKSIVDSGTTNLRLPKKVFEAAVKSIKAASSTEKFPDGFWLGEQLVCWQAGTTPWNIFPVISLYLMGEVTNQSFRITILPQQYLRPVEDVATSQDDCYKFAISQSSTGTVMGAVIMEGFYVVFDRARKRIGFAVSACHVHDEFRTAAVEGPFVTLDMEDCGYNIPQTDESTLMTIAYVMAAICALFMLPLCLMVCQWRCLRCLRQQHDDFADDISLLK
- test details: β-Secretase (BACE1) enzyme inhibition FRET assay
- Format: biochemical
- conditions used: Table 13; read-out: BACE1 IC50
pIC50: −log10 of the molar value.
experimental endpoint: pIC50

*Q* // query pIC50 value for entry COc1ccc(C2(c3cccnc3)NC(=N)N(C3CCOCC3)C2=O)cc1 (stereo not drawn) [Example 323]
*A* ~5.00

*Q* // query pIC50 value for entry COc1ccc(C2(c3ccc(OC)cc3)NC(=N)N(CC3CCOCC3)C2=O)cc1 [Example 275]
*A* 5.68

*Q* // query pIC50 value for entry COc1ccc(C2(c3ccc(OC)cc3)NC(=N)N(Cc3ccccc3C#N)C2=O)cc1 [Example 305]
*A* 5.17

*Q* // query pIC50 value for entry COc1ccc(C2(c3ccc(OC)cc3)NC(=N)N(C3CCN(C(=O)c4ccccc4)CC3)C2=O)cc1 [Example 311]
*A* ~5.17

*Q* // query pIC50 value for entry COc1ccc(C2(c3ccc(OC)cc3)NC(=N)N(Cc3ncccc3C)C2=O)cc1 [Example 302]
*A* < 5.00

*Q* // query pIC50 value for entry N=C1NC(c2cccc(-c3cccnc3)c2)(C2CCCCC2)C(=O)N1C1CCOCC1 (stereo not drawn) [Example 517]
*A* 4.83

*Q* // query pIC50 value for entry COc1ccc(C2(c3ccc(OC)cc3)NC(=N)N(CC3CCN(C(=O)OC(C)(C)C)CC3)C2=O)cc1 [Example 313]
*A* ~5.66

*Q* // query pIC50 value for entry COc1cccc(-c2cccc(C3(c4ccccc4)NC(=N)N(C4CCOCC4)C3=O)c2)c1 (stereo not drawn) [Example 324]
*A* 5.61

*Q* // query pIC50 value for entry COc1cccc(-c2cccc(C3(C4CC4)NC(=N)N(C4CCOCC4)C3=O)c2)c1 (stereo not drawn) [Example 329]
*A* ~5.44

*Q* // query pIC50 value for entry COc1ccc(C2(c3ccc(OC)cc3)NC(=N)N(CC3CCN(C)CC3)C2=O)cc1 [Example 308]
*A* < 5.00

*Q* // query pIC50 value for entry COc1ccc(C2(C3CCCCC3)NC(=N)N(C3CCCCC3)C2=O)cc1 (stereo not drawn) [Example 447]
*A* 4.76

*Q* // query pIC50 value for entry COc1cccc(-c2cccc(C3(c4ccccc4)NC(=N)N(C4CCCCC4)C3=O)c2)c1 (stereo not drawn) [Example 326]
*A* ~5.05

*Q* // query pIC50 value for entry N=C1NC(c2cccc(-c3cncc(Cl)c3)c2)(C2CC2)C(=O)N1C1CCOCC1 (stereo not drawn) [Example 489]
*A* 5.94

*Q* // query pIC50 value for entry COc1ccc(C2(c3cnn(C)c3)NC(=N)N(C3CCOCC3)C2=O)cc1 (stereo not drawn) [Example 336]
*A* < 5.00

*Q* // query pIC50 value for entry N=C1NC(c2ccccc2)(c2cccc(-c3cccnc3)c2)C(=O)N1C1CCCCC1 (stereo not drawn) [Example 136]
*A* 4.74

*Q* // query pIC50 value for entry COc1ccc(C2(c3cncnc3)NC(=N)N(C3CCOCC3)C2=O)cc1 (stereo not drawn) [Example 333]
*A* < 5.00

*Q* // query pIC50 value for entry COc1ccc(C2(c3ccncc3)NC(=N)N(C3CCOCC3)C2=O)cc1 (stereo not drawn) [Example 334]
*A* < 5.00

*Q* // query pIC50 value for entry COc1ccc(C2(C3CCCC3)NC(=N)N(C3CCOCC3)C2=O)cc1 (stereo not drawn) [Example 335]
*A* < 5.00

====

- experimental target: recombinant human BACE1 (Homo sapiens, UniProt P56817)
- test details: β-Secretase (BACE1) enzyme inhibition FRET assay
- Type: biochemical
- conditions used: Table 8; read-out: BACE IC50
TRUE if IC50 is below 6 µM. FALSE if not; exact matches included in FALSE.

*Q* Is the reported IC50 for N=C1NC(c2ccccc2)(c2cccc(-c3cccnc3)c2)C(=O)N1C1CCCCC1 (stereo not shown) [Example 136] strictly below 6 µM?
*A* TRUE

*Q* Is the reported IC50 for CCC(CN1C(=N)NC(c2ccccc2)(c2ccccc2)C1=O)c1ccccc1 (stereo not shown) [drawing 192] strictly below 6 µM?
*A* TRUE

*Q* Is the reported IC50 for COc1ccc(C2(c3ccc(OC)cc3)NC(=N)N(CC3CCOCC3)C2=O)cc1 [Example 275] strictly below 6 µM?
*A* TRUE

*Q* Is the reported IC50 for COc1cccc(C2(c3cccc(OC)c3)NC(=N)N(C3CCCCC3)C2=O)c1 [Example 128] strictly below 6 µM?
*A* FALSE

====

- experimental target: recombinant human Cathepsin E (Homo sapiens (Human))
- Sequence (P14091 54-396): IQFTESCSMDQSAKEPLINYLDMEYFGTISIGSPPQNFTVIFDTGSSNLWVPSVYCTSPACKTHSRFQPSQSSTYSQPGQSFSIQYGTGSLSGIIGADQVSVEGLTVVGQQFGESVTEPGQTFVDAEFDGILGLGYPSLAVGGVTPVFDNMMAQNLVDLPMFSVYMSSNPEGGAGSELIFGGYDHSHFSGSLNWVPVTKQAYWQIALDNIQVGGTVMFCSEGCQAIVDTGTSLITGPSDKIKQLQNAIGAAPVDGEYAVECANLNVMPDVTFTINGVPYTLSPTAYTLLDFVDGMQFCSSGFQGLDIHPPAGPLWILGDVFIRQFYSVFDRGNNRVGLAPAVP
- test details: Cathepsin E enzyme inhibition FRET assay
- conditions used: Table 8; read-out: CatE IC50
experimental endpoint: log10 of IC50 (log10 of the value in µM)
The figures below represent log10 of IC50, where IC50 is stated in µM.

*Q* // query log10 of IC50 value for entry `COc1ccc(C2(c3ccc(OC)cc3)NC(=N)N(C3CCOCC3)C2=O)cc1`
*A* -0.29

*Q* // query log10 of IC50 value for entry `COc1ccc(C2(c3ccc(OC)cc3)NC(=N)N(CC3CCOCC3)C2=O)cc1`
*A* -0.08

*Q* // query log10 of IC50 value for entry CCC(CN1C(=N)NC(c2ccccc2)(c2ccccc2)C1=O)c1ccccc1 (stereo not shown) [drawing 192]
*A* -1.00

*Q* // query log10 of IC50 value for entry `COc1cccc(C2(c3cccc(OC)c3)NC(=N)N(C3CCCCC3)C2=O)c1`
*A* 0.27

*Q* // query log10 of IC50 value for entry `COc1ccc(C2(c3ccc(OC)cc3)NC(=N)N(C3CCN(C(=O)OC(C)(C)C)CC3)C2=O)cc1`
*A* -0.63

*Q* // query log10 of IC50 value for entry COc1ccc(C2(c3cccc(-c4cccnc4)c3)NC(=N)N(C3CCCCC3)C2=O)cc1 (stereo not shown)
*A* 0.60

====

Record form. Attribute: IC50. Fill in for each entry.
- experimental target: Plasmepsin-2 (PM-2; Plm II) (Plasmodium falciparum (isolate HB3))
- test details: Plasmepsin-2 enzyme inhibition assay
- Type: biochemical
- conditions used: Table 12; read-out: PM-2 IC50
Hi, when you answer, please include the unit after the number. Thanks!

*Q* // query IC50 value for entry COc1cccc(-c2cccc(C3(C4CC4)NC(=N)N(C4CCOCC4)C3=O)c2)c1 (stereo not shown)
*A* 83.1 nM

*Q* // query IC50 value for entry COc1cccc(-c2cccc(C3(c4ccccc4)NC(=N)N(C4CCOCC4)C3=O)c2)c1 (stereo not shown)
*A* 11.3 nM

*Q* // query IC50 value for entry CN1C(=N)NC(c2ccccc2)(c2cccc(-c3cccnc3)c2)C1=O (stereo not shown)
*A* 1010 nM

*Q* // query IC50 value for entry COc1cccc(-c2cccc(C3(c4ccccc4)NC(=N)N(C4CCCCC4)C3=O)c2)c1 (stereo not shown)
*A* 33.1 nM

====

Record form. Attribute: half-life. Fill in for each entry.
- test details: Rat pharmacokinetic (PK) analysis
- Assay type: in vivo
- conditions used: male, SD, plasma, read-out: Rat PK t1/2 (converted)
Only the number, expressed in h, is required.

*Q* // query half-life value for entry `COc1ccc(C2(c3ccc(OC)cc3)NC(=N)N(C3CCOCC3)C2=O)cc1`
*A* 1.1

*Q* // query half-life value for entry `COc1ccc(C2(c3ccc(OC)cc3)NC(=N)N(C3CCN(C(=O)OC(C)(C)C)CC3)C2=O)cc1`
*A* 1.2

====

- experimental target: Plasmepsin-2 (PM-2; Plm II) (Plasmodium falciparum (isolate HB3), UniProt P46925)
- test details: Plasmepsin-2 enzyme inhibition assay
- Format: biochemical
- conditions used: Table 8; read-out: PM-II IC50
label 1 if IC50 is below 10 nM. label 0 if not; exact matches included in label 0.

*Q* Is the reported IC50 for `COc1ccc(C2(c3ccc(OC)cc3)NC(=N)N(C3CCOCC3)C2=O)cc1` strictly below 10 nM?
*A* label 1

*Q* Is the reported IC50 for `COc1ccc(C2(c3ccc(OC)cc3)NC(=N)N(CC3CCOCC3)C2=O)cc1` strictly below 10 nM?
*A* label 0

*Q* Is the reported IC50 for `COc1ccc(C2(c3ccc(OC)cc3)NC(=N)N(C3CCNCC3)C2=O)cc1` strictly below 10 nM?
*A* label 0

*Q* Is the reported IC50 for `COc1cccc(C2(c3cccc(OC)c3)NC(=N)N(C3CCCCC3)C2=O)c1` strictly below 10 nM?
*A* label 0

*Q* Is the reported IC50 for N=C1NC(c2ccccc2)(c2cccc(-c3cccnc3)c2)C(=O)N1C1CCCCC1 (centres unmarked) strictly below 10 nM?
*A* label 0

*Q* Is the reported IC50 for `COc1ccc(C2(c3ccc(OC)cc3)NC(=N)N(C3CCN(C)CC3)C2=O)cc1` strictly below 10 nM?
*A* label 0

*Q* Is the reported IC50 for COc1ccc(C2(c3cccc(-c4cccnc4)c3)NC(=N)N(C3CCCCC3)C2=O)cc1 (centres unmarked) strictly below 10 nM?
*A* label 1

*Q* Is the reported IC50 for `COc1ccc(C2(c3ccc(OC)cc3)NC(=S)N(C3CCCCC3)C2=O)cc1` strictly below 10 nM?
*A* label 0

*Q* Is the reported IC50 for CCC(CN1C(=N)NC(c2ccccc2)(c2ccccc2)C1=O)c1ccccc1 (centres unmarked) [drawing 192] strictly below 10 nM?
*A* label 0

*Q* Is the reported IC50 for `COc1ccc(C2(c3ccc(OC)cc3)NC(=N)N(C3CCN(C(=O)OC(C)(C)C)CC3)C2=O)cc1` strictly below 10 nM?
*A* label 1

*Q* Is the reported IC50 for `COc1ccc(C2(c3ccc(OC)cc3)NC(=O)N(C3CCCCC3)C2=O)cc1` strictly below 10 nM?
*A* label 0
